src = patent US20250147039A1

Reported fraction of intact chelate values follow for various compounds
assay: Dissociation of chelates in aq. 6.0M HCl at 80° C. (acid decomplexation kinetic inertness) (Chart 17); type: physicochemical; conditions: 1 week
Give a bare numeral; the unit % is implied.

# count of solved cases: 5
{"Compound": "O=C([O-])CN1CCN2CCN(CC(=O)[O-])CCN(CC1)Cc1cccc(n1)-c1cnnn1Cc1cc(-c3ccccc3)cc(n1)C2.[Zn+2]", "fraction of intact chelate (%)": 0}
{"Compound": "NCc1nnn2c1-c1cccc(n1)C[N@]1CC[N@]3CC[N@@](CC[N@@](CC1)CC(=O)[O][Lu][O]C(=O)C3)Cc1cc(-c3ccccc3)cc(n1)C2", "fraction of intact chelate (%)": 99}
{"Compound": "O=C1C[N@@]2CC[N@]3CC[N@@](CC[N@](CC2)Cc2cccc(n2)-c2cnnn2Cc2cc(-c4ccccc4)cc(n2)C3)CC(=O)[O][Nd][O]1", "fraction of intact chelate (%)": 0}
{"Compound": "O=C1C[N@@]2CC[N@]3CC[N@@](CC[N@](CC2)Cc2cccc(n2)-c2cnnn2Cc2cc(-c4ccccc4)cc(n2)C3)CC(=O)[O][Tm][O]1", "fraction of intact chelate (%)": 92}
{"Compound": "O=C1C[N@@]2CC[N@]3CC[N@@](CC[N@](CC2)Cc2cccc(n2)-c2cnnn2Cc2cc(-c4ccccc4)cc(n2)C3)CC(=O)[O][Gd][O]1", "fraction of intact chelate (%)": 0}

Value lookup for fraction of intact chelate; key = `O=C1C[N@@]2CC[N@]3CC[N@@](CC[N@](CC2)Cc2cccc(n2)-c2cn(nn2)Cc2cc(-c4ccccc4)cc(n2)C3)CC(=O)[O][Cd][O]1` 0

Value lookup for fraction of intact chelate; key = `O=C1C[N@@]2CC[N@]3CC[N@@](CC[N@](CC2)Cc2cccc(n2)-c2cn(nn2)Cc2cc(-c4ccccc4)cc(n2)C3)CC(=O)[O][Gd][O]1` 0

Value lookup for fraction of intact chelate; key = `O=C1C[N@@]2CC[N@]3CC[N@@](CC[N@](CC2)Cc2cccc(n2)-c2cnnn2Cc2cc(-c4ccccc4)cc(n2)C3)CC(=O)[O][Lu][O]1` 99
